Target: Tyrosine-protein phosphatase non-receptor type 1 (Homo sapiens)
Sequence (P18031 whole entry, the tested form may be a part): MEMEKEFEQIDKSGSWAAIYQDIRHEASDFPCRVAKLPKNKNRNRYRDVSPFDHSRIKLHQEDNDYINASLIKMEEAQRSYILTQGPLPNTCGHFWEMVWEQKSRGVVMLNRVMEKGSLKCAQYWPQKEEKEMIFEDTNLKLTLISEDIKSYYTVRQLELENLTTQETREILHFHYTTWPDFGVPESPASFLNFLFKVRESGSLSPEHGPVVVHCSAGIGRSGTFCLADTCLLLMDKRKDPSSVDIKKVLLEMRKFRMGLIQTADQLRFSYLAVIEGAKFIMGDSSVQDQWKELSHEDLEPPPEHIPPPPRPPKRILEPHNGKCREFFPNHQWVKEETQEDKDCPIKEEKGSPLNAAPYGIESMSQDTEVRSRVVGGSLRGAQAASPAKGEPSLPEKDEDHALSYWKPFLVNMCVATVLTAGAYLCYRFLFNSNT
Test: Inhibition of human recombinant PTP1B (1 to 322 residues) expressed in Escherichia coli using pNPP as substrate preincubated with substrate for 10 mins followed by enzyme addition and measured for 10 mins by absorbance based analysis
ASSAY ENDPOINT: IC50 (µM)

MOLECULE	IC50 [µM]
C=C(C)[C@H](O)CCC(=C)[C@H](O)CC[C@]1(C)C=Cc2c(cc(C)c(C(=O)O)c2O)O1	36.3
CC(C)=CCC/C(C)=C/CC[C@]1(C)C=Cc2c(cc(C)c(C(=O)O)c2O)O1	2.5
C/C(=C\CC[C@]1(C)C=Cc2c(cc(C)c(C(=O)O)c2O)O1)C/C=C\C(C)(C)O	68.1
C=C(CCC=C(C)C)[C@H](O)CC[C@]1(C)C=Cc2c(cc(C)c(C(=O)O)c2O)O1	6
CO[C@@](C)(CCC=C(C)C)[C@H](O)CC[C@]1(C)C=Cc2c(cc(C)c(C(=O)O)c2O)O1 (relative stereo)	53.6

[I] C=C(C)/C=C/C/C(C)=C/CC[C@]1(C)C=Cc2c(cc(C)c(C(=O)O)c2O)O1
[II] CC(C)=CCC/C(C)=C/CC/C(C)=C/Cc1c(O)cc(C)c(C(=O)O)c1O
[III] C=C(C)[C@H](O)CC/C(C)=C/CC[C@]1(C)C=Cc2c(cc(C)c(C(=O)O)c2O)O1
Put the entries in order of IC50, starting with the largest number. Reply with the labels, ordered as the question asks.
I, III, II

* * *

Experiment: Inhibition of Saccharomyces cerevisiae alpha-glucosidase using pNPG as substrate preincubated for 10 mins followed by substrate addition and measured for 35 mins by microplate photometric method
pIC50: −log10 of the molar value.
ASSAY ENDPOINT: pIC50

Use the examples below as a reference point.
MOLECULE	pIC50
C=C(CCC=C(C)C)[C@H](O)CC[C@]1(C)C=Cc2c(cc(C)c(C(=O)O)c2O)O1	4.73
C=C(C)[C@H](O)CCC(=C)[C@H](O)CC[C@]1(C)C=Cc2c(cc(C)c(C(=O)O)c2O)O1	4.03
CC(C)=CCC/C(C)=C/CC[C@]1(C)C=Cc2c(cc(C)c(C(=O)O)c2O)O1	4.97

[P] C[C@H]1O[C@H](O[C@H]2[C@H](O)[C@@H](O)[C@@H](O[C@H]3[C@H](O)[C@@H](O)C(O)O[C@@H]3CO)O[C@@H]2CO)[C@H](O)[C@@H](O)[C@@H]1N[C@H]1C=C(CO)[C@@H](O)[C@H](O)[C@H]1O (stereo partly specified) [ACARBOSE]
[Q] C=C(C)[C@H](O)CC/C(C)=C/CC[C@]1(C)C=Cc2c(cc(C)c(C(=O)O)c2O)O1
[R] CC(C)=CCC/C(C)=C/CC/C(C)=C/Cc1c(O)cc(C)c(C(=O)O)c1O [GRIFOLIC ACID]
Rank the items in ascending order with respect to pIC50. List the labels in the requested order.
P, Q, R
(P: 3.10, Q: 4.67, R: 5.10)
